Experiment: Partition coefficient (logP)
Assay type: physicochemical
Conditions: octanol/water
READOUT_TYPE: logP
Answers are plain numbers.

# count of solved cases: 5
CCCCCCOC(C)C1=C(C)c2cc3nc(c4c5[nH]c(cc6[nH]c(cc1n2)c(C)c6CC)c(C)c5C(=O)N(CCCCCC)C4=O)[C@@H](CCC(=O)OC)[C@@H]3C (stereo partly specified) : 10.3
CCCCCCN1C(=O)c2c3nc(cc4nc(cc5[nH]c(cc6[nH]c2c(c6C)C1=O)c(CC)c5C)C(C(C)OCCCC)=C4C)[C@@H](C)[C@@H]3CCC(=O)OC (stereo partly specified) : 9.3
CCCCCCNC(=O)CC[C@@H]1c2nc(cc3[nH]c(cc4[nH]c(cc5nc6c2C(=O)N(CCCCCC)C(=O)C6=C5C)c(CC)c4C)c(C(C)OC)c3C)[C@H]1C (stereo partly specified) : 9.3
CCCCCCCCOC(C)C1=C(C)c2cc3nc(c4c5[nH]c(cc6[nH]c(cc1n2)c(C)c6CC)c(C)c5C(=O)N(CCCCCC)C4=O)[C@@H](CCC(=O)OC)[C@@H]3C (stereo partly specified) : 11.3
CCCCCCNC(=O)CC[C@@H]1c2nc(cc3[nH]c(cc4[nH]c(cc5nc6c2C(=O)N(CCCCCC)C(=O)C6=C5C)c(CC)c4C)c(C(C)OCCC)c3C)[C@H]1C (stereo partly specified) : 10.3

The record that follows has no logP shown yet.
*Q* Look up and report measured logP for this entry: CCCCCCNC(=O)CC[C@@H]1c2nc(cc3[nH]c(cc4[nH]c(cc5nc6c2C(=O)N(CCCCCC)C(=O)C6=C5C)c(CC)c4C)c(C(C)OCCCCC)c3C)[C@H]1C (stereo partly specified)
*A* 11.3
